The measurements presented in this section are drawn from paper PMC11885821.

- Target Or Test System: PKR (unphosphorylated) (Homo sapiens, UniProt P19525 1-551)
- Sequence (P19525 whole entry): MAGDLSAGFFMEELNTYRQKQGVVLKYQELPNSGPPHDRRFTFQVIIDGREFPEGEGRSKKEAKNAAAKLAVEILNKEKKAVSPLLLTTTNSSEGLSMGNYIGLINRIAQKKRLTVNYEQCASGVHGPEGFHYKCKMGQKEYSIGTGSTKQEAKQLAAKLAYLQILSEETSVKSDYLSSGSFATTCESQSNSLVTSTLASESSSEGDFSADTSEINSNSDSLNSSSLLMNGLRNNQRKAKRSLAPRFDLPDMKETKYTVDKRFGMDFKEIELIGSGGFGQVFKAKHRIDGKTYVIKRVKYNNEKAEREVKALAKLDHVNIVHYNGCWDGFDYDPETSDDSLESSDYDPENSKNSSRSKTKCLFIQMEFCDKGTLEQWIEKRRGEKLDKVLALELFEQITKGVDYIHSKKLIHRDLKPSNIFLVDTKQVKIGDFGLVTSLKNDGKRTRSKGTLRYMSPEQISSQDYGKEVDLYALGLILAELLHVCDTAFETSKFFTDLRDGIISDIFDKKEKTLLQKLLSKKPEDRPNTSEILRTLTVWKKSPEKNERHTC
- Assay Notes: FP
- Measurement Context: protein: recombinant; tags: His tag (HisTrap purified); label: 3' FAM in FP; none in ITC and SEC-MALS; hairpin, blunt 2 G-C end; bulges C5, A17, U23-C24-U25
Value Type: pKd
// pKd here means minus log10 of the molar concentration (mol/L)

Report pKd for TAR2GC (WT) (structured_RNA) RNA: GGUCUCUCUGGUUAGACCAGAUCUGAGCCUGGGAGCUCUCUGGCUAACUAGGGAACC please. 7.46
